Measured values drawn from ChEMBL document CHEMBL2034824 for this set.

- TEST SUMMARY: Aqueous solubility of the compound by HPLC analysis
- Format: physicochemical
Recorded solubility for the following compounds

Answered examples (5):
1) CC(C)C[C@@H]1C(=O)N[C@H](C2Cc3ccccc3C2)C(=O)N1[C@@H](C(=O)N(C)C)c1ccc(=O)[nH]c1; > 240 µg/mL
2) CC[C@H](C)[C@@H]1C(=O)N[C@H](C2Cc3ccccc3C2)C(=O)N1[C@@H](C(=O)N(C)C)c1ccc(C)[n+]([O-])c1; > 242 µg/mL
3) CC[C@H](C)[C@@H]1C(=O)N[C@H](C2Cc3ccccc3C2)C(=O)N1[C@@H](C(=O)N1CCOCC1)c1ccc(C)nc1; > 268 µg/mL
4) Cc1ccc([C@H](C(=O)N2CCOCC2)N2C(=O)[C@@H](C3Cc4ccccc4C3)NC(=O)[C@H]2CC(C)C)cn1; > 253 µg/mL
5) Cc1ccc([C@H](C(=O)N(C)C)N2C(=O)[C@@H](C3Cc4ccccc4C3)NC(=O)[C@H]2CC(C)C)cn1; > 236 µg/mL

The recorded solubility for Cc1ccc([C@H](C(=O)N(C)C)N2C(=O)[C@@H](C3Cc4ccccc4C3)NC(=O)[C@H]2CC(C)(C)C)cn1 is > 242 µg/mL

The recorded solubility for CC[C@H](C)[C@@H]1C(=O)N[C@H](C2Cc3ccccc3C2)C(=O)N1[C@@H](C(=O)N(C)C)c1ccc(C)nc1 is > 254 µg/mL

The recorded solubility for CC[C@@H](C)[C@@H]1C(=O)N[C@H](C2Cc3ccccc3C2)C(=O)N1[C@@H](C(=O)N1CCOCC1)c1ccc(C)nc1 is > 280 µg/mL

---

- TEST SUMMARY: Clearance in dog at 0.6 mg/kg
- Type: ADME, organism-based, Canis lupus familiaris
- Set-up: dose 0.6 mg/kg
- TEST SETTINGS: in vivo
Recorded clearance for the following molecules
Note: unit mL/min/kg is implicit; provide only the numeric part.

Answered examples (2):
1) CC[C@H](C)[C@@H]1C(=O)N[C@H](C2Cc3ccccc3C2)C(=O)N1[C@@H](C(=O)N1CCOCC1)c1ccc(C)nc1; 23
2) CC[C@H](C)[C@@H]1C(=O)N[C@H](C2Cc3ccccc3C2)C(=O)N1[C@@H](C(=O)N(C)C)c1ccc(C)[n+]([O-])c1; 14

# evaluate next
The recorded clearance for CC(C)C[C@@H]1C(=O)N[C@H](C2Cc3ccccc3C2)C(=O)N1[C@@H](C(=O)N(C)C)c1ccc(F)cc1F is 7

---

- TEST SUMMARY: AUC in rat at 5 mg/kg, po
- Assay type: ADME, organism-based
- Parameters: dose 5 mg/kg, route oral
- TEST SETTINGS: plasma
VALUE KIND: AUC (ng·h/mL)
Note: unit ng·h/mL is implicit; provide only the numeric part.

Answered examples (2):
1) CC[C@H](C)[C@@H]1C(=O)N[C@H](C2Cc3ccccc3C2)C(=O)N1[C@@H](C(=O)NC)c1cnc(C)cc1C; 407
2) CCC(CC)[C@@H]1C(=O)N[C@H](C2Cc3ccccc3C2)C(=O)N1[C@@H](C(=O)N1CCOCC1)c1ccc(C)nc1; 1380

# evaluate next
The recorded AUC for CC[C@@H](C)[C@@H]1C(=O)N[C@H](C2Cc3ccccc3C2)C(=O)N1[C@@H](C(=O)N1CCOCC1)c1ccc(C)nc1 is 1590

---

- System: Liver
- TEST SUMMARY: Intrinsic clearance in dog liver microsomes
- Format: ADME, Canis lupus familiaris, Microsome
Recorded CLH for the following molecules
Note: unit mL/min/g is implicit; provide only the numeric part.

1) CCC(CC)[C@@H]1C(=O)N[C@H](C2Cc3ccccc3C2)C(=O)N1[C@@H](C(=O)N1CCOCC1)c1ccc(C)nc1C; 1

# evaluate next
The recorded CLH for Cc1ccc([C@H](C(=O)N(C)C)N2C(=O)[C@@H](C3Cc4ccccc4C3)NC(=O)[C@H]2CC(C)(C)C)cn1 is 1

---

- MEASURED TARGET: Oxytocin receptor (Homo sapiens, UniProt P30559)
- Sequence (P30559 whole entry): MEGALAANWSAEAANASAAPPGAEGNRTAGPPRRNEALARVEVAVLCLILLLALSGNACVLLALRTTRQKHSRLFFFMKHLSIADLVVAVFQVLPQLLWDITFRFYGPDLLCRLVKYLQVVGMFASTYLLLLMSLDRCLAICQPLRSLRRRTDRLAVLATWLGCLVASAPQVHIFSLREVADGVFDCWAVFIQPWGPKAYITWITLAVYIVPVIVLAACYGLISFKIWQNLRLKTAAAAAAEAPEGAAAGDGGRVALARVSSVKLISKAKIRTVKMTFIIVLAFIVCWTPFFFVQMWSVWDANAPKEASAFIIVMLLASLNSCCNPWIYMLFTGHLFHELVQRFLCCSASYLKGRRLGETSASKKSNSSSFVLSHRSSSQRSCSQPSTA
- TEST SUMMARY: Displacement of [3H]oxytocin from human oxytocin receptor
Recorded pKi for the following compounds
Please note pKi is a logarithmic value: minus log10 of concentration in mol/L. Answer with that number alone.

1. CCC(CC)[C@@H]1C(=O)N[C@H](C2Cc3ccccc3C2)C(=O)N1[C@@H](C(=O)NC)c1ccc(C)nc1; 10.00

The recorded pKi for CC(C)C[C@@H]1C(=O)N[C@H](C2Cc3ccccc3C2)C(=O)N1[C@@H](C(=O)N(C)C)c1ccc(F)cc1F is 10.10

The recorded pKi for CC[C@H](C)[C@@H]1C(=O)N[C@H](C2Cc3ccccc3C2)C(=O)N1[C@@H](C(=O)N(C)C)c1cc(C)cnc1C is 9.10

The recorded pKi for Cc1ccc([C@H](C(=O)N2CCCC2)N2C(=O)[C@@H](C3Cc4ccccc4C3)NC(=O)[C@H]2CC(C)C)cn1 is 9.30

The recorded pKi for CC[C@H](C)[C@@H]1C(=O)N[C@H](C2Cc3ccccc3C2)C(=O)N1[C@@H](C(=O)N(C)C)c1ccc(C)nc1C is 10.10

---

- MEASURED TARGET: Oxytocin receptor (Homo sapiens, UniProt P30559)
- TEST SUMMARY: Displacement of [3H]oxytocin from human oxytocin receptor
VALUE KIND: Ki
The answer consists of two parts: a number and, after it, its unit.

Answered examples (2):
1. Cc1ccc([C@H](C(=O)N(C)C)N2C(=O)[C@@H](C3Cc4ccccc4C3)NC(=O)[C@H]2CC2CC2)cn1; 5.01 nM
2. Cc1ccc([C@H](C(=O)N2CCOCC2)N2C(=O)[C@@H](C3Cc4ccccc4C3)NC(=O)[C@H]2CC(C)(C)C)cn1; 0.0794 nM

# evaluate next
The recorded Ki for CCC(CC)[C@@H]1C(=O)N[C@H](C2Cc3ccccc3C2)C(=O)N1[C@@H](C(=O)NC)c1ccc(C)nc1C is 0.0501 nM

---

- MEASURED TARGET: Oxytocin receptor (Homo sapiens, UniProt P30559)
- Sequence (P30559 whole entry): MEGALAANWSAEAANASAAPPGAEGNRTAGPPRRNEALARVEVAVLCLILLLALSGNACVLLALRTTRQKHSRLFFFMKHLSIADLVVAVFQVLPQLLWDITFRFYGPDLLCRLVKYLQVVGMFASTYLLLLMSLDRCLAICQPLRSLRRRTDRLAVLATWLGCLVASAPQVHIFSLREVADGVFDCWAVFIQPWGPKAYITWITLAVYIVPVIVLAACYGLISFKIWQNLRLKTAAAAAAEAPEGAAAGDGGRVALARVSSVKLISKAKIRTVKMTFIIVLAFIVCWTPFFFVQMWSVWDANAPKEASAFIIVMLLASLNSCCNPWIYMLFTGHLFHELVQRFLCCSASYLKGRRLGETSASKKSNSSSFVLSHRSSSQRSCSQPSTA
- TEST SUMMARY: Displacement of [3H]oxytocin from human oxytocin receptor
Recorded Ki for the following compounds
Note: unit nM is implicit; provide only the numeric part.

Answered examples (4):
1. Cc1ccc([C@H](C(=O)N2CCOCC2)N2C(=O)[C@@H](C3Cc4ccccc4C3)NC(=O)[C@H]2CC2CC2)cn1; 5.01
2. Cc1ccc([C@H](C(=O)N2CCOCC2)N2C(=O)[C@@H](C3Cc4ccccc4C3)NC(=O)[C@H]2CC(C)C)cn1; 0.398
3. CC[C@H](C)[C@@H]1C(=O)N[C@H](C2Cc3ccccc3C2)C(=O)N1[C@@H](C(=O)N1CCOCC1)c1cc(C)cnc1C; 0.794
4. Cc1ccc([C@H](C(=O)N(C)C)N2C(=O)[C@@H](C3Cc4ccccc4C3)NC(=O)[C@H]2CC(C)C)cn1; 1.58

# evaluate next
The recorded Ki for CC[C@H](C)[C@@H]1C(=O)N[C@H](C2Cc3ccccc3C2)C(=O)N1[C@@H](C(=O)N1CCOCC1)c1ccc(C)nc1 is 0.158
